Source listed as ChEMBL document CHEMBL4038282.

assay: Solubility of the compound in ethanol after 24 hrs by shake-flask method; assay type: physicochemical; conditions: ethanol
MEASUREMENT KIND: solubility thermodynamic at 24 h (mg/mL)
Dear colleague, please return just the value in mg/mL, with no unit written.

For the molecule COc1cc(/C=C/C(=O)/C=C(O)/C=C/c2ccc(OC(=O)C(C)(CO)CO)c(OC)c2)ccc1OC(=O)C(C)(CO)CO , report solubility thermodynamic at 24 h.
13.8
